Experiment: enzyme screen for hydrolysis/methanolysis of butyl-KLG (HPLC of products and remaining substrate)
Format: biochemical
Parameters: unit: ppm
Details: Table 8: 38° C., 21 Hours, 8.6% Methanol-Water, 0.2 M MES
propertyName: MeKLG formed (ppm)
Your answer should be a plain number; it is taken to be in ppm.

>  <molecule>
Rhizopus Niveus Lipase: Rhizopus Niveus Lipase (protein, UniProt P61871 96-392, looked up) Lipase: DDNLVGGMTLDLPSDAPPISLSSSTNSASDGGKVVAATTAQIQEFTKYAGIAATAYCRSVVPGNKWDCVQCQKWVPDGKIITTFTSLLSDTNGYVLRSDKQKTIYLVFRGTNSFRSAITDIVFNFSDYKPVKGAKVHAGFLSSYEQVVNDYFPVVQEQLTAHPTYKVIVTGHSLGGAQALLAGMDLYQREPRLSPKNLSIFTVGGPRVGNPTFAYYVESTGIPFQRTVHKRDIVPHVPPQSFGFLHPGVESWIKSGTSNVQICTSEIETKDCSNSIVPFTSILDHLSYFDINEGSCL

>  <MeKLG formed (ppm)>
181

$$$$
>  <molecule>
Humicola lanuginosa Lipase: Humicola lanuginosa Lipase (protein, UniProt O59952 23-291, looked up) Lipase: EVSQDLFNQFNLFAQYSAAAYCGKNNDAPAGTNITCTGNACPEVEKADATFLYSFEDSGVGDVTGFLALDNTNKLIVLSFRGSRSIENWIGNLNFDLKEINDICSGCRGHDGFTSSWRSVADTLRQKVEDAVREHPDYRVVFTGHSLGGALATVAGADLRGNGYDIDVFSYGAPRVGNRAFAEFLTVQTGGTLYRITHTNDIVPRLPPREFGYSHSSPEYWIKSGTLVPVTRNDIVKIEGIDATGGNNQPNIPDIPAHLWYFGLIGTCL

>  <MeKLG formed (ppm)>
129

$$$$

Let us move to another entry and its MeKLG formed.
Provide only the value of recorded MeKLG formed for Mucor meihei Lipase: Mucor meihei Lipase (protein, UniProt P19515 95-363, looked up) Lipase: SIDGGIRAATSQEINELTYYTTLSANSYCRTVIPGATWDCIHCDATEDLKIIKTWSTLIYDTNAMVARGDSEKTIYIVFRGSSSIRNWIADLTFVPVSYPPVSGTKVHKGFLDSYGEVQNELVATVLDQFKQYPSYKVAVTGHSLGGATALLCALDLYQREEGLSSSNLFLYTQGQPRVGDPAFANYVVSTGIPYRRTVNERDIVPHLPPAAFGFLHAGEEYWITDNSPETVQVCTSDLETSDCSNSIVPFTSVLDHLSYFGINTGLCT
283
